EXPERIMENTAL_PROTOCOL: Pharmacokinetics of memantine after oral or buccal dosing in male beagle dogs (Example 2)
Type: in vivo, beagle dog
CONDITION_SET: male, beagle, dog, plasma, 0.4 mg/kg, MMT 0.4 mg/kg Buccal + 7.5 mg/ml Na2CO3
READOUT_TYPE: half-life

For the molecule CC12CC3CC(C)(C1)CC(N)(C3)C2 [Memantine] , what half-life is on record?
4.5 h

====

EXPERIMENTAL_PROTOCOL: Pharmacokinetics of memantine after oral or buccal dosing in male beagle dogs (Example 2)
Assay type: in vivo, beagle dog
CONDITION_SET: male, beagle, dog, plasma, 0.4 mg/kg, MMT 0.4 mg/kg Buccal + 7.5 mg/ml Na2CO3
READOUT_TYPE: AUC(0-t) (ng·h/mL)
Answer with a number only, understood to be in ng·h/mL.

Returns the measured AUC(0-t) for the input molecule. Input: CC12CC3CC(C)(C1)CC(N)(C3)C2 [Memantine]
179

====

EXPERIMENTAL_PROTOCOL: Pharmacokinetics of memantine after oral or buccal dosing in male beagle dogs (Example 2)
Format: in vivo, beagle dog
CONDITION_SET: male, beagle, dog, plasma, po, 0.4 mg/kg, MMT 0.4 mg/kg Oral + 25 mg/kg NH4Cl
READOUT_TYPE: half-life (h)
Just the number in h, nothing appended.

Consider the molecule CC12CC3CC(C)(C1)CC(N)(C3)C2 [Memantine] and give its measured half-life.
5.5

====

EXPERIMENTAL_PROTOCOL: Pharmacokinetics of memantine with sodium hydroxide, menthol and NH4Cl in male beagle dogs (Example 3)
Assay type: in vivo, beagle dog
CONDITION_SET: male, beagle, dog, plasma, po, 0.4 mg/kg, MMT 0.4 mg/kg, Control
READOUT_TYPE: Cmax (ng/mL)
Your answer should be a plain number; it is taken to be in ng/mL.

Please look up its Cmax: CC12CC3CC(C)(C1)CC(N)(C3)C2 [Memantine]
34.5

====

EXPERIMENTAL_PROTOCOL: Pharmacokinetics of memantine after oral or buccal dosing in male beagle dogs (Example 2)
Type: in vivo, beagle dog
CONDITION_SET: male, beagle, dog, plasma, po, 0.4 mg/kg, MMT 0.4 mg/kg Oral + 30 mg/kg NH4Cl
READOUT_TYPE: Cmax (ng/mL)
Unit ng/mL implied. Number only.

Query (compound): CC12CC3CC(C)(C1)CC(N)(C3)C2 [Memantine] ; field requested: Cmax
25

====

EXPERIMENTAL_PROTOCOL: Pharmacokinetics of memantine after oral or buccal dosing in male beagle dogs (Example 2)
Type: in vivo, beagle dog
CONDITION_SET: male, beagle, dog, plasma, po, 0.4 mg/kg, MMT 0.4 mg/kg Oral, ControlAve
READOUT_TYPE: AUC(0-t) (ng·h/mL)
Give the quantity in ng·h/mL, number only.

Bench note: what AUC(0-t) did CC12CC3CC(C)(C1)CC(N)(C3)C2 [Memantine] show?
190

====

EXPERIMENTAL_PROTOCOL: Pharmacokinetics of memantine after oral or buccal dosing in male beagle dogs (Example 2)
Format: in vivo, beagle dog
CONDITION_SET: male, beagle, dog, plasma, po, 0.4 mg/kg, MMT 0.4 mg/kg Oral + 30 mg/kg NH4Cl
READOUT_TYPE: half-life (h)
Give the number; h is assumed, so skip it.

Looking for the measured half-life of CC12CC3CC(C)(C1)CC(N)(C3)C2 [Memantine] , can you help?
4.8

====

EXPERIMENTAL_PROTOCOL: Pharmacokinetics of memantine with sodium hydroxide, menthol and NH4Cl in male beagle dogs (Example 3)
Assay type: in vivo, beagle dog
CONDITION_SET: male, beagle, dog, plasma, po, 0.4 mg/kg, MMT 0.4 mg/kg, Control
READOUT_TYPE: AUC(0-t)
Your reply should be a number followed by the unit it is expressed in.

Please report the recorded AUC(0-t) for CC12CC3CC(C)(C1)CC(N)(C3)C2 [Memantine] .
120 ng·h/mL

====

EXPERIMENTAL_PROTOCOL: Pharmacokinetics of memantine after oral or buccal dosing in male beagle dogs (Example 2)
Type: in vivo, beagle dog
CONDITION_SET: male, beagle, dog, plasma, po, 0.4 mg/kg, MMT 0.4 mg/kg Oral, ControlAve
READOUT_TYPE: half-life (h)
Give your result in h as a bare value.

# input molecule: CC12CC3CC(C)(C1)CC(N)(C3)C2 [Memantine] ; wanted: its half-life
6.5

====

EXPERIMENTAL_PROTOCOL: Pharmacokinetics of memantine after oral or buccal dosing in male beagle dogs (Example 2)
Format: in vivo, beagle dog
CONDITION_SET: male, beagle, dog, plasma, 0.4 mg/kg, MMT 0.4 mg/kg Buccal, Control (water)
READOUT_TYPE: AUC(0-inf) (ng·h/mL)
Give the quantity in ng·h/mL, number only.

// query AUC(0-inf) value for entry CC12CC3CC(C)(C1)CC(N)(C3)C2 [Memantine]
125

====

EXPERIMENTAL_PROTOCOL: Pharmacokinetics of memantine with sodium hydroxide, menthol and NH4Cl in male beagle dogs (Example 3)
Format: in vivo, beagle dog
CONDITION_SET: male, beagle, dog, plasma, po, 0.4 mg/kg, MMT 0.4 mg/kg, 3.3 mg/ml sodium hydroxide + 5 mg/ml menthol
READOUT_TYPE: AUC(0-t) (ng·h/mL)
Reply numerically in ng·h/mL, unit not repeated.

Need AUC(0-t), item CC12CC3CC(C)(C1)CC(N)(C3)C2 [Memantine]
113

====

EXPERIMENTAL_PROTOCOL: Pharmacokinetics of memantine after oral or buccal dosing in male beagle dogs (Example 2)
Format: in vivo, beagle dog
CONDITION_SET: male, beagle, dog, plasma, 0.4 mg/kg, MMT 0.4 mg/kg Buccal + 7.5 mg/ml Na2CO3
READOUT_TYPE: Tmax (min)
Numbers only here, please. The scale is min.

Given CC12CC3CC(C)(C1)CC(N)(C3)C2 [Memantine] , state its recorded Tmax.
27

====

EXPERIMENTAL_PROTOCOL: Pharmacokinetics of memantine after oral or buccal dosing in male beagle dogs (Example 2)
Type: in vivo, beagle dog
CONDITION_SET: male, beagle, dog, plasma, 0.4 mg/kg, MMT 0.4 mg/kg Buccal, Control (water)
READOUT_TYPE: Cmax (ng/mL)
# number only, unit ng/mL dropped from output

For the molecule CC12CC3CC(C)(C1)CC(N)(C3)C2 [Memantine] , what Cmax is on record?
23

====

EXPERIMENTAL_PROTOCOL: Pharmacokinetics of memantine after oral or buccal dosing in male beagle dogs (Example 2)
Format: in vivo, beagle dog
CONDITION_SET: male, beagle, dog, plasma, po, 0.4 mg/kg, MMT 0.4 mg/kg Oral + 25 mg/kg NH4Cl
READOUT_TYPE: AUC(0-inf) (ng·h/mL)
A number alone suffices; assume ng·h/mL.

Looking for the measured AUC(0-inf) of CC12CC3CC(C)(C1)CC(N)(C3)C2 [Memantine] , can you help?
179

====

EXPERIMENTAL_PROTOCOL: Pharmacokinetics of memantine after oral or buccal dosing in male beagle dogs (Example 2)
Type: in vivo, beagle dog
CONDITION_SET: male, beagle, dog, plasma, po, 0.4 mg/kg, MMT 0.4 mg/kg Oral + 15 mg/kg NH4Cl
READOUT_TYPE: Cmax (ng/mL)
// return numeric value only (unit: ng/mL, not printed)

Given the molecule CC12CC3CC(C)(C1)CC(N)(C3)C2 [Memantine] , what is its reported Cmax?
25

====

EXPERIMENTAL_PROTOCOL: Pharmacokinetics of memantine with sodium hydroxide, menthol and NH4Cl in male beagle dogs (Example 3)
Type: in vivo, beagle dog
CONDITION_SET: male, beagle, dog, plasma, po, 0.4 mg/kg, MMT 0.4 mg/kg, 3.3 mg/ml sodium hydroxide + 5 mg/ml menthol + 30 mg/kg NH4Cl
READOUT_TYPE: Cmax
Hi, when you answer, please include the unit after the number. Thanks!

// returns reported Cmax for input CC12CC3CC(C)(C1)CC(N)(C3)C2 [Memantine]
43 ng/mL

====

EXPERIMENTAL_PROTOCOL: Pharmacokinetics of memantine after oral or buccal dosing in male beagle dogs (Example 2)
Format: in vivo, beagle dog
CONDITION_SET: male, beagle, dog, plasma, po, 0.4 mg/kg, MMT 0.4 mg/kg Oral, ControlAve
READOUT_TYPE: AUC(0-inf) (ng·h/mL)
Give the quantity in ng·h/mL, number only.

What measured AUC(0-inf) goes with CC12CC3CC(C)(C1)CC(N)(C3)C2 [Memantine] ?
210

====

EXPERIMENTAL_PROTOCOL: Pharmacokinetics of memantine after oral or buccal dosing in male beagle dogs (Example 2)
Type: in vivo, beagle dog
CONDITION_SET: male, beagle, dog, plasma, po, 0.4 mg/kg, MMT 0.4 mg/kg Oral + 15 mg/kg NH4Cl
READOUT_TYPE: half-life (h)
Number in h, nothing else.

For the molecule CC12CC3CC(C)(C1)CC(N)(C3)C2 [Memantine] , what half-life is on record?
6.7
